- Test system: DU-145
- TEST METHOD NOTES: cells
- Assay type: functional, cell-based
- CONDITION CONTEXT: Homo sapiens
- Description: SANGER: Inhibition of human DU-145 cell growth in a cell viability assay.
pIC50: −log10 of the molar value.
Each entry below carries its reported pIC50.
VALUE KIND: pIC50

>>> observed_value("NC(=O)c1ccc(N(C(N)=O)c2c(F)cccc2F)nc1-c1ccc(F)cc1F [VX-702]")
6.84
>>> observed_value("OC[C@H](Cc1ccccc1)Nc1nc(Oc2ccc3c(c2)CCC3)nc2c1ncn2Cc1ccc(-c2ccccc2)cc1")
5.10
>>> observed_value("Cc1ccc(-n2nc(C(C)(C)C)cc2NC(=O)Nc2ccc(OCCN3CCOCC3)c3ccccc23)cc1 [DORAMAPIMOD]")
5.40
